Cited source: PubChem BioAssay AID1745844

- Tested on: rodent lifetime carcinogenesis bioassay, tumor incidence TD50
- protocolDescription: carcinogenic potency in animals, long-term in vivo studies, CPDB compilation (AID 1745844)
- measurementConditions: mouse; strain B6C3F1; males; in drinking water; site: any site (literature study); lesion: several types; types named in the paper; dosed 104 weeks; study length 104 weeks
Active and inactive are the calls of the source. How the calls were made is not given here.
reportedMetric: TD50

Some entries whose results are on file:
O=C(O)C1C2C=CC(C2)C1(C(=O)O)[N+](=O)[O-] (centres undefined) :: 153 mg/kg/day
CC(CO)OC(C)CO (centres undefined) (tested in a mixture with another compound) :: 24500 mg/kg/day (inactive)
O=NO :: 9190 mg/kg/day (inactive)

Next compound, please.
query: I would be grateful if you could share the reported TD50 for [Na+] .
result: 992 mg/kg/day
